experiment: Quantitative highthroughput screen to assess conditional lethalithy of P12 Ichikawa cells grown in RPMI1640 with dialyzed fetal bovine serum (RPMI+ds) (AID 1963880); details: ATP luminescence, 48 h; P12-Ichikawa viability; series mostly up to 45.8 µM; also: nearly all actives have a fitted effect of over 35% in size;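 as to viability: 100% = DMSO wells and 0% = empty wells on each plate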
Records with an inconclusive call do not appear. Calls of active or inactive are those of the source. Calls follow the shape of the dose curve; as a rule, active = well fitted cell-killing curve with a large enough effect; inconclusive = small, poorly fitted or top-dose-only effect; inactive = flat fitted curve, though single readings scatter.
Parameter call: string, one of active, inactive

What is the recorded call for this compound in the test? "COc1ccc(S(=O)(=O)Nc2cc(-c3c(O)ccc4ccccc34)c(O)c3ccccc23)cc1" active

What is the recorded call for this compound in the test? "O=C1Nc2ccc(I)cc2C1=Cc1cc(Br)c(O)c(Br)c1" inactive

What is the recorded call for this compound in the test? "C[C@@H](Oc1cc(-n2cnc3ccc(CN4CCN(C)CC4)cc32)sc1C(N)=O)c1ccccc1C(F)(F)F" active

What is the recorded call for this compound in the test? NCCCC(N)(C(=O)O)C(F)F (centres undefined) inactive

###

assay: Quantitative highthroughput screen to assess conditional lethalithy of SEM cells grown in RPMI1640 with dialyzed fetal bovine serum (RPMI+ds) (AID 1963884); conditions: SEM B-ALL cells, RPMI+dialyzed FBS, CellTiter-Glo viability, 48 h; series mostly up to 45.8 µM; also: nearly all actives have a fitted effect of over 35% in size;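 as to viability: 100% = DMSO control wells and 0% = empty wells without cells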
Inconclusive results are not listed. The source made the active and inactive calls. Calls come from the whole dose curve; as a rule, active = well fitted cell-killing curve with a large enough effect; inconclusive = small, poorly fitted or top-dose-only effect, or effect the other way; inactive = no such curve, though single readings can be large or run the other way.
Parameter call: string, one of y for active, n for inactive

What is the recorded call for this compound in the test? "C[C@]12C=CC(=O)C=C1CC[C@@H]1[C@@H]2C(=O)C[C@@]2(C)[C@H]1CC[C@]2(O)C(=O)CO" n

What is the recorded call for this compound in the test? "CO[C@H]1C=CC=C(C)C(=O)NC2=CC(=O)C(NCCN(C)C)=C(C[C@@H](C)C[C@H](OC)[C@@H](O)[C@@H](C)C=C(C)[C@@H]1OC(N)=O)C2=O" y

What is the recorded call for this compound in the test? "COC(=O)N1CC2(CC2)C[C@H](C(=O)NO)[C@H]1C(=O)N1CCN(c2ccccc2)CC1" y

What is the recorded call for this compound in the test? "O=c1ccn([C@@H]2O[C@H](CO)[C@H](O)[C@@H]2F)c(=O)[nH]1" n

What is the recorded call for this compound in the test? "Cn1c(=O)c(F)c(Nc2ccc(I)cc2F)c2c(=O)n(C[C@@H](O)CO)cnc21" y

What is the recorded call for this compound in the test? "CC(=O)Nc1ccc([C@H](C)C(=O)Nc2ncc(C(C)C)s2)cc1" y

What is the recorded call for this compound in the test? CNC(=O)c1ccc2cc(C3(O)CCn4cncc43)ccc2c1 (stereo unspecified) n

What is the recorded call for this compound in the test? CN1[C@H]2CC[C@H]1CC(OC(=O)c1c[nH]c3ccccc13)C2 (stereo partly specified) n

What is the recorded call for this compound in the test? "CO[C@@H]1[C@@H](OC(N)=O)[C@@H](O)[C@H](Oc2ccc3c(O)c(NC(=O)c4ccc(O)c(CC=C(C)C)c4)c(=O)oc3c2C)OC1(C)C" n

What is the recorded call for this compound in the test? O=C(NC(Cc1cc(=O)[nH]c2ccccc12)C(=O)O)c1ccc(Cl)cc1 (stereo unspecified) n

What is the recorded call for this compound in the test? "CC(=O)Nc1nc(C)c(-c2ccc(Cl)c(S(=O)(=O)NCCO)c2)s1" y

What is the recorded call for this compound in the test? "CCNC(=O)Nc1ccc(Oc2ncnc(N)c2C=NOC)cc1Cl" y

What is the recorded call for this compound in the test? "c1coc(CNc2ncnc3nc[nH]c23)c1" n

What is the recorded call for this compound in the test? "C[C@@H]1CC(=O)NN=C1c1ccc(NN=C(C#N)C#N)cc1" y

What is the recorded call for this compound in the test? CC(=O)c1cnc2ccc(-c3cc(Cl)c(O)c(Cl)c3)nc2c1NC1CCC(CN(C)C)CC1 (stereo unspecified) y

What is the recorded call for this compound in the test? NC1CCC(N[C@@H]2C[C@H]2c2ccccc2)CC1 (stereo partly specified) n

What is the recorded call for this compound in the test? "Nc1cc(C(Cl)=C(Cl)Cl)c(S(N)(=O)=O)cc1S(N)(=O)=O" y

What is the recorded call for this compound in the test? "CCOC(=O)N1CCC(=C2c3ccc(Cl)cc3CCc3cccnc32)CC1" y

What is the recorded call for this compound in the test? "Cc1[nH]c2ccccc2c1CCNCc1ccc(C=CC(=O)NO)cc1" y

What is the recorded call for this compound in the test? "Nc1ncnc2c1c(-c1cnc3[nH]ccc3c1)nn2C1CCCC1" y

What is the recorded call for this compound in the test? "CC1(C)CC(O)CC(C)(C)N1[O]" n

###

experiment: Cellular viability qHTS for adrenocortical cancer (ACC) cell line NCI-H295R (AID 1963990); details: CellTiter-Glo ATP luminescence, 48 h; series mostly up to 46.1 µM; also: nearly all actives have a fitted effect of over 60% in size; also: potency is read from the fitted curve at half-maximal effect
Results filed as inconclusive are left out. The source made the active and inactive calls. Calls come from the whole dose curve; as a rule, active = well fitted cell-killing curve with a large enough effect; inconclusive = small, poorly fitted or top-dose-only effect; inactive = flat fitted curve, though single readings scatter.
reported property: Potency

Example results:
{"columns": ["molecule", "reported property", "readout value"],
 "data": [
  ["CCOc1cc2ncc(C#N)c(Nc3ccc(F)c(Cl)c3)c2cc1NC(=O)/C=C/CN(C)C", "Potency", "3.55 µM (active)"],
  ["COc1cc2c(cc1OC)[C@@H]1C(=O)c3ccc4c(c3O[C@@H]1CO2)C=CC(C)(C)O4", "Potency", "20 µM (active)"],
  ["CCN1/C(=C/C=C/c2sc3ccccc3[n+]2CC)Sc2ccccc21", "Potency", "10 µM (active)"],
  ["CN1c2ccccc2C(=O)N2CCc3c([nH]c4ccccc34)C21 (stereo not given)", "Potency", "1.78 µM (active)"]
]}

GET /value?item= "C[C@@H]1COCCN1c1cc(-c2ccnn2C)c2ccnc(-c3ccn[nH]3)c2n1" &field=Potency returns 0.158 µM (active)

GET /value?item= "CCCOC(=O)c1ccc(O)cc1" &field=Potency returns inactive

GET /value?item= Cc1cc(C(C)Nc2ccccc2)c2nc(N3CCOCC3)cc(=O)n2c1 (stereo not given) &field=Potency returns inactive

GET /value?item= "O=c1[nH]nc(Sc2ncc([N+](=O)[O-])s2)n1-c1ccc2c(c1)OCCO2" &field=Potency returns 6.31 µM (active)

GET /value?item= "COc1ccc(Cc2ccc(NC(N)=O)cc2)cc1-c1cccc(Cl)c1" &field=Potency returns 28.2 µM (active)

GET /value?item= "CN1CCN(c2ccc3nc(-c4cc(C(C)(C)C)c(OCCCC(=O)NCCCN=[N+]=[N-])c(C(C)(C)C)c4)[nH]c3c2)CC1" &field=Potency returns 3.16 µM (active)

GET /value?item= "Cn1ncc(Cl)c1-c1cc(C(=O)N[C@H](CN)Cc2ccc(F)c(F)c2)sc1Cl" &field=Potency returns 3.16 µM (active)

###

assay: Cellular viability qHTS for adrenocortical cancer (ACC) cell line SW-13 (AID 1963989); conditions: SW-13 ACC cells viability, CellTiter-Glo, 48 h; stronger effect = lower value;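 also: cells grown in serum-free medium with ITS supplement; % is scaled to controls: 0 for no effect and ±100 for the full control effect; nearly all actives have a fitted effect of over 65% in size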
Records with an inconclusive call do not appear.
reported property: activity (max response) (%)
Reply with just the number (in %).

GET /value?item= "CC(=O)N[C@H]1CSSC[C@@H](C(N)=O)NC(=O)[C@H](C(C)C)NC(=O)[C@H](C)NC(=O)[C@H](Cc2cnc[nH]2)NC1=O" &field=activity (max response) returns -0.986

GET /value?item= "CCS(=O)(=O)c1ccc2oc(-c3ccc4ccccc4c3)nc2c1" &field=activity (max response) returns 1.49

GET /value?item= "Cc1c(C(=O)Nc2ccc(N3C[C@@H](C)O[C@@H](C)C3)nc2)cccc1-c1ccc(OC(F)(F)F)cc1" &field=activity (max response) returns -4.43

GET /value?item= CC(C)(C)NCC(O)COc1ccc(NC(=O)NC2CCCCC2)cc1 (stereo not drawn) &field=activity (max response) returns 5.25

GET /value?item= "CC/C=C(\C(=O)N[C@@H]1C(=O)N2C(C(=O)OCOC(=O)C(C)(C)C)=C(COC(N)=O)CS[C@H]12)c1csc(N)n1" &field=activity (max response) returns 13.8

GET /value?item= "CC(=O)Nc1nnc(S(N)(=O)=O)s1" &field=activity (max response) returns 5.04

GET /value?item= "CCN(CC)CCOC(=O)c1ccc(N)cc1" &field=activity (max response) returns 7.42

GET /value?item= "Oc1cccc(O)c1" &field=activity (max response) returns 6.94

GET /value?item= CC(C)C(C)C=CC(C)C1CCC2C3=CC=C4CC(O)CCC4(C)C3CCC21C (stereo not drawn) &field=activity (max response) returns 11.2

GET /value?item= "C[n+]1ccccc1/C=N/O" &field=activity (max response) returns 3.67

GET /value?item= "CC(C)(CO)[C@@H](O)C(=O)NCCCO" &field=activity (max response) returns 15.4

GET /value?item= COCCc1ccc(OCC(O)CNC(C)C)cc1 (stereo not drawn) &field=activity (max response) returns -3.54

GET /value?item= "CC1(C)[C@@H]2CC[C@@]1(C)C(=O)C2" &field=activity (max response) returns 10.1

GET /value?item= NC(=O)NC1NC(=O)NC1=O (stereo not drawn) &field=activity (max response) returns 10.7

GET /value?item= CN1C(=O)CC(C)(c2ccccc2)C1=O (stereo not drawn) &field=activity (max response) returns -10.7

GET /value?item= "Nc1ccc(O)c([N+](=O)[O-])c1" &field=activity (max response) returns 0.787

GET /value?item= "CCN(CC)CCNC(=O)COc1ccc(Cl)cc1" &field=activity (max response) returns 6.48

GET /value?item= "CCC1(c2cnc[nH]2)Cc2ccccc2C1" &field=activity (max response) returns -4.6

GET /value?item= "O=c1c(O)c(-c2ccc(O)cc2)oc2cc(O)cc(O)c12" &field=activity (max response) returns -9.76

GET /value?item= "CCCCCCCC/C=C\CCCCCCCCN" &field=activity (max response) returns 7.78

GET /value?item= CC(CN(C)C)C(C)(O)Cc1ccc(Cl)cc1 (stereo not drawn) &field=activity (max response) returns 6.59

GET /value?item= "C[C@]12C=CC(=O)C=C1CC[C@H]1[C@@H]3C[C@@H](O)[C@](O)(C(=O)CO)[C@@]3(C)C[C@H](O)[C@@]12F" &field=activity (max response) returns 4.79

GET /value?item= "Nc1nc2c(c(=O)[nH]1)N(C=O)[C@H](CNc1ccc(C(=O)N[C@@H](CCC(=O)O)C(=O)O)cc1)CN2" &field=activity (max response) returns 4.65
